Just for reference, ChEMBL document CHEMBL5120915 is where these values come from.

Test: Inhibition of Saccharomyces cerevisiae alpha-glucosidase using pNPG as substrate preincubated for 5 mins followed by pNPG addition and measured after 10 mins by microplate reader method
endpoint label: IC50 (µg/mL)

| molecule | unit | IC50 |
| --- | --- | --- |
| CC1=CC(=O)[C@H]2C(C)(C)CCC[C@]2(C)[C@H]1/C=C/c1ccoc1Sc1ccccc1C | µg/mL | 9.7 |
| CC1=CC(=O)[C@H]2C(C)(C)CCC[C@]2(C)[C@H]1/C=C/c1ccoc1Sc1cccc(Cl)c1 | µg/mL | 9.7 |
| CC1=CC(=O)[C@H]2C(C)(C)CCC[C@]2(C)[C@H]1/C=C/c1ccoc1Sc1ccccc1Cl | µg/mL | 9.7 |
| CC1=CC(=O)[C@H]2C(C)(C)CCC[C@]2(C)[C@H]1/C=C/c1ccoc1Sc1ccccc1 | µg/mL | 13.17 |
| CC1=CC(=O)[C@H]2C(C)(C)CCC[C@]2(C)[C@H]1/C=C/c1ccoc1SCc1ccc(F)cc1 | µg/mL | 9.7 |
| CC1=CC(=O)[C@H]2C(C)(C)CCC[C@]2(C)[C@H]1/C=C/c1ccoc1SCc1ccccc1 | µg/mL | 13.34 |
| CC1=CC(=O)[C@H]2C(C)(C)CCC[C@]2(C)[C@H]1/C=C/c1ccoc1Sc1ccccc1Br | µg/mL | 13.01 |
| COc1ccccc1Sc1occc1/C=C/[C@H]1C(C)=CC(=O)[C@H]2C(C)(C)CCC[C@]12C | µg/mL | 11.82 |
| CC1=CC(=O)[C@H]2C(C)(C)CCC[C@]2(C)[C@H]1/C=C/c1ccoc1Sc1ccc(Br)cc1 | µg/mL | 9.7 |
| CC1=CC(=O)[C@H]2C(C)(C)CCC[C@]2(C)[C@H]1/C=C/c1ccoc1Sc1cccc(F)c1 | µg/mL | 9.7 |

P: CC1=CC(=O)[C@H]2C(C)(C)CCC[C@]2(C)[C@H]1/C=C/c1ccoc1Sc1cccc(Br)c1
Q: C[C@H]1O[C@H](O[C@H]2[C@H](O)[C@@H](O)[C@@H](O[C@H]3[C@H](O)[C@@H](O)C(O)O[C@@H]3CO)O[C@@H]2CO)[C@H](O)[C@@H](O)[C@@H]1N[C@H]1C=C(CO)[C@@H](O)[C@H](O)[C@H]1O (some centres not stated) [ACARBOSE]
Q: Identify the item whose IC50 is the smaller number: P or Q State your choice using its label.
Ans: Q
